Conditions: in ethyl acetate, 288.15 K
readout_name: solubility (mole fraction)

Lab note: COc1c(N2CCNC(C)C2)c(F)cc2c(=O)c(C(=O)O)cn(C3CC3)c12 (stereo unspecified) gave solubility (mole fraction) of 0.00509

----------
Settings: in ethanol, 298.15 K
readout_name: solubility (mole fraction)

Lab note: COc1c(N2CCNC(C)C2)c(F)cc2c(=O)c(C(=O)O)cn(C3CC3)c12 (stereo unspecified) gave solubility (mole fraction) of 0.000698

----------
Conditions: in toluene, 288.15 K
readout_name: solubility (mole fraction)

Lab note: COc1c(N2CCNC(C)C2)c(F)cc2c(=O)c(C(=O)O)cn(C3CC3)c12 (stereo unspecified) gave solubility (mole fraction) of 0.000146
